Values from PubChem BioAssay

System: Fibrinogen (Alexa647-labelled)
Assay: fibrinogen binders on compound microarrays, profiling panel, artefact control for SMM control-protein annotation, biochemical, small-molecule microarray, 635/667 nm fluorescence (AID 1131);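 note: z-score merges 667 nm fluorescence with per-spot signal-to-noise over triplicate slides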
Conditions: fibrinogen-A647 binding fluorescence, higher = more signal
This section presents compounds with their documented composite z-score values.

These solved cases illustrate the format of a correct answer.
COMPOUND: CCOC(=O)[C@H](Cc1ccccc1)NC(=O)CCC1CC(OC(=O)NCCc2ccc(F)cc2)CC2(CCCC(COC(=O)NCC3CCCCC3)O2)O1 (some centres not stated)
SYSTEM_TESTED: Fibrinogen (Alexa647-labelled)
ENDPOINT_NAME: composite z-score
MEASURED_VALUE: 0.656
--
COMPOUND: COc1cccc([C@H]2Oc3ccc(OC)cc3C(=NO[C@@H]3O[C@H](COC(C)=O)[C@@H](OC(C)=O)[C@H](OC(C)=O)[C@H]3OC(C)=O)[C@@H]2O)c1
SYSTEM_TESTED: Fibrinogen (Alexa647-labelled)
ENDPOINT_NAME: composite z-score
MEASURED_VALUE: -0.339
--
COMPOUND: COC(=O)[C@H](C)NC(=O)CCC1CC(OC(=O)NCc2ccc3c(c2)OCO3)CC2(CCCC(COC(=O)NCCc3ccccc3OC)O2)O1 (some centres not stated)
SYSTEM_TESTED: Fibrinogen (Alexa647-labelled)
ENDPOINT_NAME: composite z-score
MEASURED_VALUE: 0.626
--
COMPOUND: COC(=O)CC=C[C@@H](C)[C@@H]1C=C[C@H](O)[C@@H](CO)O1
SYSTEM_TESTED: Fibrinogen (Alexa647-labelled)
ENDPOINT_NAME: composite z-score
MEASURED_VALUE: 0.201
--
COMPOUND: COc1ccc(O[C@@H]2[C@H](O)CO[C@H]2C=Cc2ccccc2)cc1
SYSTEM_TESTED: Fibrinogen (Alexa647-labelled)
ENDPOINT_NAME: composite z-score
MEASURED_VALUE: 0.173
--
COMPOUND: CCN1C(=O)[C@@H]2[C@H]3C(=CC[C@@H]2C1=O)C1(OCCCO1)[C@H]1O[C@H]1[C@H]3O
SYSTEM_TESTED: Fibrinogen (Alexa647-labelled)
ENDPOINT_NAME: composite z-score
MEASURED_VALUE: 0.982

Query :: Would you mind telling me what composite z-score value was observed for CO[C@@H]1COC(=O)CC=C[C@@H](C)[C@@H]2C=C[C@H](O)[C@@H](COC(=O)CC=C[C@H]1C)O2 ?
Result :: -0.616

====

Test: CREB reporter modulators without forskolin, primary screen, cell-based, PC12, CRE-LacZ reporter, unstimulated (AID 1145)
Conditions: no forskolin, luminescence, 4.5 h, higher = more signal, called active from +8 up or from −8 down
This section presents compounds with their documented z-score values.
Lab note: write the figure by itself, no unit.

These solved cases illustrate the format of a correct answer.
STRUCTURE_NOTATION: CO[C@@H]1COC(=O)CC=C[C@@H](C)[C@@H]2C=C[C@H](O)[C@@H](COC(=O)CC=C[C@H]1C)O2
z-score: 0.877

STRUCTURE_NOTATION: C=CC[C@@H]1C=C[C@H](ON=C[C@@H](C)[C@H](OCc2ccccc2)C(C)C)[C@@H](CO)O1
z-score: 1.31

STRUCTURE_NOTATION: C[C@@H](c1ccccc1)N1C(=O)[C@H]2[C@H]3[C@H](O)[C@H](O)CC(=O)[C@H]3CC[C@H]2C1=O
z-score: -0.113

Attention now shifts to the item below.
Query :: Would you mind telling me what z-score value was observed for CC(CCN1CCc2nc(-c3ccccc3)c(-c3ccccc3)cc2C1)=NOC[C@@H](O)[C@H]1O[C@@H]2OC(C)(C)O[C@@H]2[C@H]1O ?
Result :: 2.25
